Below are log10 Ki values measured for Muscarinic acetylcholine receptor M3 (Homo sapiens).
All values: base-10 log of Ki in nM.

{"columns": ["compound", "readout name", "observed"],
 "data": [
  ["O=C(c1ccc(OCc2ccc(CNC[C@H](O)c3ccc(O)c4[nH]c(=O)ccc34)cc2)cc1)N1CCC(C(=O)OC2CN3CCC2CC3)(c2ccccc2)CC1 (single isomer, unassigned)", "log10 Ki", -0.60],
  ["O=C(c1ccc(CCNC[C@H](O)c2ccc(O)c3[nH]c(=O)ccc23)cc1)N1CCC(c2cccc([C@](O)(C(=O)OCC3CCN(Cc4ccccc4)CC3)c3ccccc3)c2)CC1", "log10 Ki", -1.20],
  ["O=C(c1ccc(CNC[C@H](O)c2ccc(O)c3[nH]c(=O)ccc23)cc1)N1CC(COc2cccc([C@](O)(C(=O)OCC3CCN(Cc4ccccc4)CC3)c3ccccc3)c2)C1", "log10 Ki", 0.10],
  ["CCN1CCC(COC(=O)[C@](O)(c2ccccc2)c2cccc(OCCCNC(=O)c3cc(OC)c(CNC[C@H](O)c4ccc(O)c5[nH]c(=O)ccc45)cc3F)c2)CC1.O=C(O)C(F)(F)F.O=C(O)C(F)(F)F", "log10 Ki", -1.90]
]}

## Task Entry under review: O=C(NCCCNC[C@H](O)c1ccc(O)c2[nH]c(=O)ccc12)c1ccc(COc2cccc([C@@](O)(C(=O)OCC3CCN(Cc4ccccc4)CC3)c3ccccc3)c2)cc1 . Reported log10 Ki?
## Result 0.50

## Task Same again, this time with O=C(NCCCCNC[C@H](O)c1ccc(O)c2[nH]c(=O)ccc12)c1cccc(C(=O)NC2(C(=O)O[C@H]3CN4CCC3CC4)CCc3ccccc32)c1 (single isomer, unassigned)
## Result 1.10

## Task Same again, this time with O=C(N[C@@H](c1ccccc1)c1cccc(OCc2cccc(C(=O)NCCCCNC[C@H](O)c3ccc(O)c4[nH]c(=O)ccc34)c2)c1)O[C@H]1CN2CCC1CC2
## Result -1.20

## Task Same again, this time with COc1cc(C(=O)NCCCOc2cccc([C@](O)(C(=O)OCC3CCN(Cc4ccccc4)CC3)c3ccccc3)c2)c(F)cc1CNC[C@H](O)c1ccc(O)c2[nH]c(=O)ccc12
## Result -2.00

## Task Same again, this time with O=C(NCc1ccc(-c2cccc([C@](O)(C(=O)OCC3CCN(Cc4ccccc4)CC3)c3ccccc3)c2)s1)c1ccc(CNC[C@H](O)c2ccc(O)c3[nH]c(=O)ccc23)cc1
## Result -0.60

## Task Same again, this time with O=C(NCCCCNC[C@H](O)c1ccc(O)c2[nH]c(=O)ccc12)c1ccc(CNC2(C(=O)O[C@H]3CN4CCC3CC4)CCc3ccccc32)cc1 (mixture of isomers)
## Result -0.90

----------
experimental details: in vitro
measurement conditions: human, plasma
Description: Stability in human plasma assessed as half-life at 5 uM incubated for 120 mins by LC-MS/MS analysis
Listed next: entries and their corresponding half-life at 2 h, 5 µM.

Would you please look over these solved cases?
{"columns": ["chem smiles", "half-life at 2 h, 5 µM"],
 "data": [
  ["O=C(NCCCOc1cccc([C@](O)(C(=O)OC[C@H]2CCN(Cc3ccccc3)C2)c2ccccc2)c1)c1ccc(CNC[C@H](O)c2ccc(O)c3[nH]c(=O)ccc23)cc1", "> 2.13 h"],
  ["O=C(NCCCOc1cccc([C@](O)(C(=O)OCC2CCN(C3CCC3)CC2)c2ccccc2)c1)c1ccc(CNC[C@H](O)c2ccc(O)c3[nH]c(=O)ccc23)cc1", "> 2.5 h"],
  ["O=C(c1ccc(CNC[C@H](O)c2ccc(O)c3[nH]c(=O)ccc23)cc1)N1CC(COc2cccc([C@](O)(C(=O)OCC3CCN(Cc4ccccc4)CC3)c3ccccc3)c2)C1", "> 2.5 h"],
  ["COc1cc(C(=O)NCCCOc2cccc([C@](O)(C(=O)OCC3CCN(Cc4ccccc4)CC3)c3ccccc3)c2)ccc1CNC[C@H](O)c1ccc(O)c2[nH]c(=O)ccc12", "> 2.5 h"],
  ["COc1cc(CNC[C@H](O)c2ccc(O)c3[nH]c(=O)ccc23)c(Cl)cc1C(=O)NCCCOc1cccc([C@](O)(C(=O)O[C@@H]2CCCN(C)C2)c2ccccc2)c1", "> 2.5 h"]
]}

## Task Entry under review: O=C(NCCCOc1cccc([C@](O)(C(=O)O[C@@H]2CCCN(Cc3ccccc3)C2)c2ccccc2)c1)c1ccc(CNC[C@H](O)c2ccc(O)c3[nH]c(=O)ccc23)cc1.O=CO . Reported half-life at 2 h, 5 µM?
## Result > 2.5 h

----------
experimental details: in vitro
measurement conditions: rat, lung S9 fraction
Description: Stability in rat lung S9 fraction assessed as half-life at 1 uM incubated for 60 mins by LC-MS/MS analysis
readout name: half-life at 1 h, 1 µM (h)
Report the value in h with no unit label.

Would you please look over these solved cases?
{"columns": ["compound", "half-life at 1 h, 1 µM [h]"],
 "data": [
  ["O=C(c1ccc(OCc2ccc(CNC[C@H](O)c3ccc(O)c4[nH]c(=O)ccc34)cc2)cc1)N1CCC(C(=O)OC2CN3CCC2CC3)(c2ccccc2)CC1 (single isomer, unassigned)", 3.62],
  ["COc1cc(C(=O)NCCCOc2cccc([C@](O)(C(=O)OCC3CCN(Cc4ccccc4)CC3)c3ccccc3)c2)c(F)cc1CNC[C@H](O)c1ccc(O)c2[nH]c(=O)ccc12", 1.85]
]}

Shift focus to the following entry.
## Task Entry under review: O=C(NCc1ccc(-c2cccc([C@](O)(C(=O)OCC3CCN(Cc4ccccc4)CC3)c3ccccc3)c2)s1)c1ccc(CNC[C@H](O)c2ccc(O)c3[nH]c(=O)ccc23)cc1 . Reported half-life at 1 h, 1 µM?
## Result 2.1

----------
experimental details: in vitro
measurement conditions: human, hepatocytes
Description: Metabolic stability in human hepatocytes assessed as clearance measured per 10^6 cells at 1 uM incubated for 90 mins by LC-MS/MS analysis
Listed next: entries and their corresponding hepatocyte CLint at 1.5 h, 1 µM.
Report the value in µL/min/1e6 cells with no unit label.

## Task Entry under review: Cc1cc(C(=O)NCCCOc2cccc([C@](O)(C(=O)O[C@@H]3CCCN(C)C3)c3ccccc3)c2)c(C)cc1CNC[C@H](O)c1ccc(O)c2[nH]c(=O)ccc12 . Reported hepatocyte CLint at 1.5 h, 1 µM?
## Result 3

## Task Same again, this time with CN1CCC[C@@H](OC(=O)[C@](O)(c2ccccc2)c2cccc(OCCCNC(=O)c3cccc(CNC[C@H](O)c4ccc(O)c5[nH]c(=O)ccc45)c3)c2)C1
## Result 5

## Task Same again, this time with COc1cc(C(=O)NCCCOc2cccc([C@](O)(C(=O)O[C@@H]3CCCN(C)C3)c3ccccc3)c2)ccc1CNC[C@H](O)c1ccc(O)c2[nH]c(=O)ccc12
## Result 4

## Task Same again, this time with COc1cc(C(=O)N2CCC(c3cccc([C@](O)(C(=O)OCC4CCN(Cc5ccccc5)CC4)c4ccccc4)c3)CC2)ccc1CNC[C@H](O)c1ccc(O)c2[nH]c(=O)ccc12
## Result 28

## Task Same again, this time with O=C(NCc1ccc(-c2cccc([C@](O)(C(=O)OCC3CCN(Cc4ccccc4)CC3)c3ccccc3)c2)s1)c1ccc(CNC[C@H](O)c2ccc(O)c3[nH]c(=O)ccc23)cc1
## Result 12

----------
experimental details: in vitro
measurement conditions: guinea pig, plasma
Description: Stability in guinea pig plasma assessed as half-life at 5 uM incubated for 120 mins by LC-MS/MS analysis
Listed next: entries and their corresponding log10 half-life at 2 h, 5 µM.
All values: base-10 log of half-life at 2 h, 5 µM in h.

{"columns": ["compound", "log10 half-life at 2 h, 5 µM"],
 "data": [
  ["CN1CCC(COC(=O)[C@](O)(c2ccccc2)c2cccc(OCCCNC(=O)c3ccc(CNC[C@H](O)c4ccc(O)c5[nH]c(=O)ccc45)cc3)c2)CC1", -0.74]
]}

## Task Entry under review: O=C(c1ccc(OCc2ccc(CNC[C@H](O)c3ccc(O)c4[nH]c(=O)ccc34)cc2)cc1)N1CCC(C(=O)OC2CN3CCC2CC3)(c2ccccc2)CC1 (single isomer, unassigned) . Reported log10 half-life at 2 h, 5 µM?
## Result 0.26

## Task Same again, this time with O=C(NCCCOc1cccc([C@](O)(C(=O)O[C@@H]2CCN(Cc3ccccc3)C2)c2ccccc2)c1)c1ccc(CNC[C@H](O)c2ccc(O)c3[nH]c(=O)ccc23)cc1
## Result -0.21

## Task Same again, this time with CN1CCC(COC(=O)[C@](O)(c2ccccc2)c2cccc(-c3ccc(CNC(=O)c4ccc(CNC[C@H](O)c5ccc(O)c6[nH]c(=O)ccc56)cc4)s3)c2)CC1
## Result -0.10

## Task Same again, this time with CN1CCC[C@@H](OC(=O)[C@](O)(c2ccccc2)c2cccc(OCCCNC(=O)c3ccc(CNC[C@H](O)c4ccc(O)c5[nH]c(=O)ccc45)c(F)c3)c2)C1.O=CO
## Result 0.15

## Task Same again, this time with Cc1cc(C(=O)NCCCOc2cccc([C@](O)(C(=O)O[C@@H]3CCCN(C)C3)c3ccccc3)c2)c(C)cc1CNC[C@H](O)c1ccc(O)c2[nH]c(=O)ccc12
## Result 0.37

----------
target system: Beta-2 adrenergic receptor (Homo sapiens)
Sequence (P07550 whole entry): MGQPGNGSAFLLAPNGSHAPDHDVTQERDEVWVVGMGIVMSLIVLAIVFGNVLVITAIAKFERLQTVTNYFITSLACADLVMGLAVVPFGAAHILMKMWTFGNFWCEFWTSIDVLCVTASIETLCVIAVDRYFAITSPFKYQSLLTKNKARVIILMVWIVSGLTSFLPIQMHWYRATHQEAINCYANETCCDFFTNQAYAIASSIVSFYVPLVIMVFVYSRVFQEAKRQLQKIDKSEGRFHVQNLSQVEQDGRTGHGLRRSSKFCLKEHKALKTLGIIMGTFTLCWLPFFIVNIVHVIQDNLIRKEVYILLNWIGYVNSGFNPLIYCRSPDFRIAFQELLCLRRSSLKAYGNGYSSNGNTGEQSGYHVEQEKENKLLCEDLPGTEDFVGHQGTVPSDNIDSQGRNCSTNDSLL
One threshold, 0.02 nM, splits the recorded Ki values: lower ones are True, equal or higher ones are False.

## Task Lab note: confirm whether the reported Ki for this compound is below 0.02 nM, equality not counting. compound: O=C(NCCCNC[C@H](O)c1ccc(O)c2[nH]c(=O)ccc12)c1ccc(COc2cccc([C@@](O)(C(=O)OCC3CCN(Cc4ccccc4)CC3)c3ccccc3)c2)cc1
## Result False

## Task Same again, this time with CCN1CCC(COC(=O)[C@](O)(c2ccccc2)c2cccc(OCCCNC(=O)c3cc(OC)c(CNC[C@H](O)c4ccc(O)c5[nH]c(=O)ccc45)cc3F)c2)CC1.O=C(O)C(F)(F)F.O=C(O)C(F)(F)F
## Result False

## Task Same again, this time with CN1CCC[C@@H](OC(=O)[C@](O)(c2ccccc2)c2cccc(OCCCNC(=O)c3ccc(CNC[C@H](O)c4ccc(O)c5[nH]c(=O)ccc45)c(F)c3)c2)C1.O=CO
## Result True

## Task Same again, this time with COc1cc(C(=O)NCCCOc2cccc([C@](O)(C(=O)O[C@@H]3CCCN(C)C3)c3ccccc3)c2)ccc1CNC[C@H](O)c1ccc(O)c2[nH]c(=O)ccc12
## Result True

## Task Same again, this time with CN1CCC[C@@H](OC(=O)[C@](O)(c2ccccc2)c2cccc(OCCCNC(=O)c3ccc(CNC[C@H](O)c4ccc(O)c5[nH]c(=O)ccc45)nc3)c2)C1.O=CO.O=CO
## Result False

## Task Same again, this time with O=C(c1ccc(OCc2ccc(CNC[C@H](O)c3ccc(O)c4[nH]c(=O)ccc34)cc2)cc1)N1CC(C(=O)OC2CN3CCC2CC3)(c2ccccc2)C1 (single isomer, unassigned)
## Result False

## Task Same again, this time with COc1cc(C(=O)NCCCOc2cccc([C@](O)(C(=O)O[C@@H]3CCCN(C)C3)c3ccccc3)c2)c(F)cc1CNC[C@H](O)c1ccc(O)c2[nH]c(=O)ccc12
## Result True

## Task Same again, this time with O=C(NCCCCNC[C@H](O)c1ccc(O)c2[nH]c(=O)ccc12)c1cccc(C(=O)NC2(C(=O)O[C@H]3CN4CCC3CC4)CCc3ccccc32)c1 (single isomer, unassigned)
## Result False

## Task Same again, this time with O=C(N[C@@H](c1ccccc1)c1cccc(OCc2cccc(C(=O)NCCCCNC[C@H](O)c3ccc(O)c4[nH]c(=O)ccc34)c2)c1)O[C@H]1CN2CCC1CC2
## Result True

## Task Same again, this time with O=C(N[C@@H](c1ccccc1)c1cccc(OCc2ccc(C(=O)NCCCNC[C@H](O)c3ccc(O)c4[nH]c(=O)ccc34)cc2)c1)O[C@@H]1CN2CCC1CC2
## Result True
